# experimentalSystem: T1, biotin-labelled EZH2 protein (UniProt Q15910 1-746, limits assumed, biotin label (EZ-link NHS-PEO4-Biotinylation kit))
# T1 construct: Probe in solution (1 ug/ml) on the KDM2B peptide microarray; also called NHS-PEO4-Biotinylation-labelled EZH2 protein; recombinant protein
# T1 sequence (Q15910 whole entry): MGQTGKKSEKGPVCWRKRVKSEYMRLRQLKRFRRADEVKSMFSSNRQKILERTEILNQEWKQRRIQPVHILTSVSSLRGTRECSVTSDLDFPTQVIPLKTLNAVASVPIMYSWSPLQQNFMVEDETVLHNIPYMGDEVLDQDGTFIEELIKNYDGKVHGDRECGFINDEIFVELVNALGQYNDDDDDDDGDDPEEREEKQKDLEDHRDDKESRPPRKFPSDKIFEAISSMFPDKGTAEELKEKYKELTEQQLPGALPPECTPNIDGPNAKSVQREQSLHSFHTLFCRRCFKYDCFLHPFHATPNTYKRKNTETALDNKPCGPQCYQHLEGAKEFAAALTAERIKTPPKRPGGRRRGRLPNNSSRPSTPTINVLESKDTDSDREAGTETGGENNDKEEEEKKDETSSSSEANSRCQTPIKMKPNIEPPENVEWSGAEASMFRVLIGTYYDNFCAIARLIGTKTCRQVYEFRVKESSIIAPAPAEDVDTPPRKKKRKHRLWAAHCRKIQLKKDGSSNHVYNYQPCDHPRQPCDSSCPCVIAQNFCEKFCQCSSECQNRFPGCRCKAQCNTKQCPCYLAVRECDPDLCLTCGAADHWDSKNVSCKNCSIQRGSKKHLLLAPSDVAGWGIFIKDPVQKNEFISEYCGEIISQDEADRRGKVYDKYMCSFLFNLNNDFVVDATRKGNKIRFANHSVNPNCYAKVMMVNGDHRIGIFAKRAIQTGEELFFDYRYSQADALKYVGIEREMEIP
# assayProtocol: KDM2B peptide array probed with biotin-EZH2 1 ug/ml, SA-HRP/ECL;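 also: 100% is the highest background-corrected spot optical density on the membrane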;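 also: Background-corrected optical density of each spot on the membrane, given as percent of the brightest spot (100%), color developed for 5 minutes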
Listed here are binders together with their documented Intensity (%).
Lab book: enter the figure in %, no units written.

Answered examples (8):
KKTVIYTKCFEFESA [peptide 6] :: 27.5
PQALLEGVKNVLKEH [peptide 109] :: 0
SQLYQGDFVHAMEGK [peptide 16] :: 1.87
RKRHAAEKQKKKTVI [peptide 4] :: 0
GGNILHSFNVPMQLR [peptide 66] :: 0.54
RLVDVMDVNTQKGTE [peptide 28] :: 0
GVPVVTWPKKTPKNR [peptide 114] :: 0
LKDAQMRDLLSPPTD [peptide 238] :: 0.62

Bench note: what Intensity (%) did DLNHCKSITPLMLSG [peptide 222] show?
0

Entry FFIPSGWIHAVYTPV [peptide 62] : reported Intensity (%) = ?
2.54

Can you look up the measured Intensity (%) of DNKEGQEPAKRRSEC [peptide 152] for me?
97.8

Recorded Intensity (%) for GLKALVEKLESLPEN [peptide 104] , please?
8.01
